Overview of reported total protein half-life in vivo across a group of sequences:
Assay: total protein half-life in vivo (active degradation + dilution); higher = more stable protein
Settings: E. coli NCM3722 delta-clpP delta-lon delta-hslV; growth: N-lim chemostat; doubling time 6 h
Report the figure in h without appending any unit label.

>>> recorded_result("MTTQYGFFIDSSRCTGCKTCELACKDYKDLTPEVSFRRIYEYAGGDWQEDNGVWHQNVFAYYLSISCNHCEDPACTKVCPSGAMHKREDGFVVVDEDVCIGCRYCHMACPYGAPQYNETKGHMTKCDGCYDRVAEGKKPICVESCPLRALDFGPIDELRKKHGDLAAVAPLPRAHFTKPNIVIKPNANSRPTGDTTGYLANPKEV")
5.26
>>> recorded_result("MPYKTKSDLPESVKHVLPSHAQDIYKEAFNSAWDQYKDKEDRRDDASREETAHKVAWAAVKHEYAKGDDDKWHKKS [P0AE63]")
6.81
>>> recorded_result("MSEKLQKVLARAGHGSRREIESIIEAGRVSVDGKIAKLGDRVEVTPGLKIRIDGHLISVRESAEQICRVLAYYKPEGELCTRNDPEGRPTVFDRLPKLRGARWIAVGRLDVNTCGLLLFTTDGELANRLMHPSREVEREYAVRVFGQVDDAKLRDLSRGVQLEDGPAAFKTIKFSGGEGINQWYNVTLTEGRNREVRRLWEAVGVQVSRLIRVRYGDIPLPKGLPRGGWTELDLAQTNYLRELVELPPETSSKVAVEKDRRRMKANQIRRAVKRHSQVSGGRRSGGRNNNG")
6.28

Query total protein half-life in vivo for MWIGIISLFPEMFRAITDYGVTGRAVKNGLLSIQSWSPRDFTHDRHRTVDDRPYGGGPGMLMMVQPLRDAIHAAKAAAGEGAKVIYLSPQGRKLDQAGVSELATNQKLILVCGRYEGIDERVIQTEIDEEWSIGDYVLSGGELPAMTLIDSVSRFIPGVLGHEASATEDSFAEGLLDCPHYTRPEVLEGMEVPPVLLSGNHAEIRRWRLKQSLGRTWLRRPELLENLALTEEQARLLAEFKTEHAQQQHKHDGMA [P0A873]
4.44

Query total protein half-life in vivo for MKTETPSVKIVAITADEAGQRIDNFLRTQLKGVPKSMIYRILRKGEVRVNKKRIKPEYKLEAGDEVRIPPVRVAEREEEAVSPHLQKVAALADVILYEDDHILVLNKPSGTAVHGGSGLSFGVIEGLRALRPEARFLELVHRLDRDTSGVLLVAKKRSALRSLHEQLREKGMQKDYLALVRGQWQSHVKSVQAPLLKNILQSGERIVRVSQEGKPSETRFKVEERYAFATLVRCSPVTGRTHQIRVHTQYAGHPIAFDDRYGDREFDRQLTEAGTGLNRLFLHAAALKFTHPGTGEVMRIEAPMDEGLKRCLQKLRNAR [P0AA39]
5.63

Query total protein half-life in vivo for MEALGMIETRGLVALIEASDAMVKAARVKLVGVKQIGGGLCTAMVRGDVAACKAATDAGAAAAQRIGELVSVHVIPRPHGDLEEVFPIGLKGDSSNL [P0ABF4]
4.35

Query total protein half-life in vivo for `MKKRKTVKKRYVIALVIVIAGLITLWRILNAPVPTYQTLIVRPGDLQQSVLATGKLDALRKVDVGAQVSGQLKTLSVAIGDKVKKDQLLGVIDPEQAENQIKEVEATLMELRAQRQQAEAELKLARVTYSRQQRLAQTKAVSQQDLDTAATEMAVKQAQIGTIDAQIKRNQASLDTAKTNLDYTRIVAPMAGEVTQITTLQGQTVIAAQQAPNILTLADMSAMLVKAQVSEADVIHLKPGQKAWFTVLGDPLTRYEGQIKDVLPTPEKVNDAIFYYARFEVPNPNGLLRLDMTAQVHIQLTDVKNVLTIPLSALGDPVGDNRYKVKLLRNGETREREVTIGARNDTDVEIVKGLEAGDEVVIGEAKPGAAQ`
6.09

* * *

Test: total protein half-life in vivo (active degradation + dilution); higher = more stable protein
Details: E. coli NCM3722 delta-lon; growth: N-lim chemostat; doubling time 6 h
value.type: total protein half-life in vivo

Query total protein half-life in vivo for MRIVTAAVMASTLAVSSLSHAAEVGSGDNWHPGEELTQRSTQSHMFDGISLTEHQRQQMRDLMQQARHEQPPVNVSELETMHRLVTAENFDENAVRAQAEKMANEQIARQVEMAKVRNQMYRLLTPEQQAVLNEKHQQRMEQLRDVTQWQKSSSLKLLSSSNSRSQ [P0AE85]
> 8 h

Query total protein half-life in vivo for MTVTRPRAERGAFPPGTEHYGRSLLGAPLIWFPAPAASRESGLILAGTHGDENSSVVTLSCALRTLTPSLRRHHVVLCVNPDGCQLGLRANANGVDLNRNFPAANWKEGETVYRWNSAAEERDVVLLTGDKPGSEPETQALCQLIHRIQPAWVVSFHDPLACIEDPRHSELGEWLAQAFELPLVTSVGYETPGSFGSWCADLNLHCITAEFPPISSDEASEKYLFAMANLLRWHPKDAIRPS [P0ACV6]
4.19 h

Query total protein half-life in vivo for `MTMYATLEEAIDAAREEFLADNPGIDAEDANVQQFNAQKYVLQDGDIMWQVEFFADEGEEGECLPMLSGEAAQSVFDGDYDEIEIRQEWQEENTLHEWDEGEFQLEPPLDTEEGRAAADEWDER`
3.3 h

* * *

Experiment: total protein half-life in vivo (active degradation + dilution); higher = more stable protein
Details: E. coli NCM3722 delta-clpP; growth: N-lim chemostat; doubling time 6 h
Overview of reported total protein half-life in vivo across a group of sequences:
Report the figure in h without appending any unit label.

Query total protein half-life in vivo for `MITIRDVARQAGVSVATVSRVLNNSTLVSADTREAVMKAVSELDYRPNANAQALATQVSDTIGVVVMDVSDAFFGALVKAVDLVAQQHQKYVLIGNSYHEAEKERHAIEVLIRQRCNALIVHSKALSDDELAQFMDNIPGMVLINRVVPGYAHRCVCLDNLSGARMATRMLLNNGHQRIGYLSSSHGIEDDAMRKAGWMSALKEQDIIPPESWIGAGTPDMPGGEAAMVELLGRNLQLTAVFAYNDNMAAGALTALKDNGIAIPLHLSIIGFDDIPIARYTDPQLTTVRYPIASMAKLATELALQGAAGNIDPRASHCFMPTLVRRHSVATRQNAAAITNSTNQAM`
3.96

Query total protein half-life in vivo for `MEQRHITGKSHWYHETQSSTTEYDVLPLVPEAAKVSDPFLLDVILEKETLAPFLSWLDPARVLAVDLFPDQLTVTRSQTFTAYERLSTALTVAQVCGVQRLCNYYSARLTPLPGPDSTRESNHRLAQITQYARQLASSPSIIDNRSRQHLNDVGLTAWDCVIISQIIGFIGFQARTIATFQAYLGHPVRWLPGLEIQNYADASLFADESLRWRSSYEVEKLPEEHTKSSTAELCQLAEILSLHPISLSLLEKLLNSTRGNTQPDNQLAALLCARINGSPACFATCMDSSNEYKKISTLMRKGENEINQWADRHSVERATVQAIQWLTRAPDRFSAAQFSPLLEHEKSSTQIINLLVWSGLCGWINRLKIALGETY`
1.97

* * *

Assay: total protein half-life in vivo (active degradation + dilution); higher = more stable protein
Conditions: E. coli NCM3722 delta-lon; growth: N-lim chemostat; doubling time 6 h
Param threshold (5 h) applies to total protein half-life in vivo; output Y when value >= threshold, N when value < threshold.

>>> label_value("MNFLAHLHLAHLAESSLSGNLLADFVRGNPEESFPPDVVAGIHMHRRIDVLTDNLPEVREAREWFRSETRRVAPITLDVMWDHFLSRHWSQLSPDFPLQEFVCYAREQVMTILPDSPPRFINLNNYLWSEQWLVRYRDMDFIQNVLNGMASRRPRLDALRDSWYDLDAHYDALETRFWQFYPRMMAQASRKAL")
"N"
>>> label_value("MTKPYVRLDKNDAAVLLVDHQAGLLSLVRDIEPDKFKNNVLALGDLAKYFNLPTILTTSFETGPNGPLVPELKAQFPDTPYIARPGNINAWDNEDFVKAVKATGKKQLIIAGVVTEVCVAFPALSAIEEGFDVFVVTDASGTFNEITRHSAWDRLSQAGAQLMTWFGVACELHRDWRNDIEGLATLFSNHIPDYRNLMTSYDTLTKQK")
"Y"
>>> label_value("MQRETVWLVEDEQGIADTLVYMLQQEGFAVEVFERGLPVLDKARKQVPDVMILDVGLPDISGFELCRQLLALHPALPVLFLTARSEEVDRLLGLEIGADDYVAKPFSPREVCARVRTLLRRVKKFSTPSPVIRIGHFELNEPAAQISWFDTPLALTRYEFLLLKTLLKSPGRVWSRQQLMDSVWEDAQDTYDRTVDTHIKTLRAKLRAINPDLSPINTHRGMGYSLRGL")
"N"
>>> label_value("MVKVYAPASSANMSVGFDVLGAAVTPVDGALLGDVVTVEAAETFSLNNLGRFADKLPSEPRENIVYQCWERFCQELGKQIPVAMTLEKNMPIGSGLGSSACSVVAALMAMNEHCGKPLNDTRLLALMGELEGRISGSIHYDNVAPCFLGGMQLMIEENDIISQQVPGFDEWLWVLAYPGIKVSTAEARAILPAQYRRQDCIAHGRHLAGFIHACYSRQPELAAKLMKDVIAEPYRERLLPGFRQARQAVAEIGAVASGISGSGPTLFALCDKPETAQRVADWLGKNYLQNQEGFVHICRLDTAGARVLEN")
"Y"
>>> label_value("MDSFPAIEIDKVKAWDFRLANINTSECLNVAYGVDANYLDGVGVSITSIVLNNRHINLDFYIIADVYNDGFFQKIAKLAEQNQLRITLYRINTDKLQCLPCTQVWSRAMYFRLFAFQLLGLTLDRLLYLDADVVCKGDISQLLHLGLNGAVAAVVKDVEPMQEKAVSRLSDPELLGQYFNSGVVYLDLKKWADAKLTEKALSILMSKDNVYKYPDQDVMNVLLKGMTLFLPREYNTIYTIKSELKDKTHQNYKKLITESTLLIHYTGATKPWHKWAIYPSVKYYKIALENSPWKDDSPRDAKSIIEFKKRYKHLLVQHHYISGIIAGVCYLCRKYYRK")
"N"
>>> label_value("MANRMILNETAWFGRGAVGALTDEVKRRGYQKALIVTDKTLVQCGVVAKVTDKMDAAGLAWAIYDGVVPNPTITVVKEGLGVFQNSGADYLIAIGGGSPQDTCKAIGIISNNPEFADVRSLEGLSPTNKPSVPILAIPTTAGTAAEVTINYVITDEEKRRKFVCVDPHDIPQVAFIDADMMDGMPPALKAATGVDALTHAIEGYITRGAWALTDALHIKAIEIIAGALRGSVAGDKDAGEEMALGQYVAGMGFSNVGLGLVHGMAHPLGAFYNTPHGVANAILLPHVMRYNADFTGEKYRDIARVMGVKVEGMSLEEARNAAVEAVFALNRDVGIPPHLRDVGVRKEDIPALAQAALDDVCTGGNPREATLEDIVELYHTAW [P0A9S1]")
"N"

Kindly determine if total protein half-life in vivo recorded for `MVKLPPLSLYIHIPWCVQKCPYCDFNSHALKGEVPHDDYVQHLLNDLDNDVAYAQGREVKTIFIGGGTPSLLSGPAMQTLLDGVRARLPLAADAEITMEANPGTVEADRFVDYQRAGVNRISIGVQSFSEEKLKRLGRIHGPQEAKRAAKLASGLGLRSFNLDLMHGLPDQSLEEALGDLRQAIELNPPHLSWYQLTIEPNTLFGSRPPVLPDDDALWDIFEQGHQLLTAAGYQQYETSAYAKPGYQCQHNLNYWRFGDYIGIGCGAHGKVTFPDGRILRTTKTRHPRGFMQGRYLESQRDVEATDKPFEFFMNRFRLLEAAPRVEFIAYTGLCEDVIRPQLDEAIAQGYLTECADYWQITEHGKLFLNSLLELFLAE` is above or exactly 5 h.
N

Kindly determine if total protein half-life in vivo recorded for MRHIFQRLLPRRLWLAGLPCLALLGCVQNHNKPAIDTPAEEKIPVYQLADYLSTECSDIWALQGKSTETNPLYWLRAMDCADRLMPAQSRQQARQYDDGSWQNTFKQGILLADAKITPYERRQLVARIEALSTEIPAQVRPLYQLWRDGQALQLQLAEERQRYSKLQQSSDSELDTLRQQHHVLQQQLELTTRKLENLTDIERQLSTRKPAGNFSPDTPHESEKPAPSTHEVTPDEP [P0AD44] is above or exactly 5 h.
Y
